FYI, the data here is from patent US20200398077A1.

Tested on: S. aureus ATCC 33592 (MRSA) Parental Wild-Type
EXPERIMENT_DESCRIPTION: Kirby-Bauer zones of inhibition (ZOI) antibiotic susceptibility assay, untreated MRSA parent strain
Format: cell-based
MEASUREMENT_SETUP: S. aureus ATCC 33592 (MRSA), untreated parent; Kirby-Bauer ZOI
ASSAY_ENDPOINT: Zone diameter (mm)

>>> numeric_readout("CCn1cc(C(=O)O)c(=O)c2cc(F)c(N3CCNCC3)cc21 [Norfloxacin]")
27.67
>>> numeric_readout("CC(=O)NC[C@H]1CN(c2ccc(N3CCOCC3)c(F)c2)C(=O)O1 [Linezolid]")
31.33

* * *

System: S. aureus ATCC 33592 (MRSA) Parental Wild-Type
EXPERIMENT_DESCRIPTION: Kirby-Bauer zones of inhibition (ZOI) antibiotic susceptibility assay, untreated MRSA parent strain
Assay type: cell-based
MEASUREMENT_SETUP: Parental Wild-Type, panel 120; CLSI M100-ED29:2019
ASSAY_ENDPOINT: Resistance/susceptibility in words (heatmap profile, FIG. 8)

>>> result("CC(=O)NC[C@H]1CN(c2ccc(N3CCOCC3)c(F)c2)C(=O)O1")
"susceptible"
>>> result("Cc1onc(-c2ccccc2)c1C(=O)N[C@@H]1C(=O)N2[C@@H]1SC(C)(C)[C@@H]2C(=O)O")
"resistant"
>>> result("CCn1cc(C(=O)O)c(=O)c2cc(F)c(N3CCNCC3)cc21")
"susceptible"
>>> result("CC=CC1=C(C(=O)O)N2C(=O)[C@@H](NC(=O)[C@H](N)c3ccc(O)cc3)[C@H]2SC1")
"resistant"
>>> result("CO[C@H]1/C=C/O[C@@]2(C)Oc3c(C)c(O)c4c(O)c(c(/C=N/N5CCN(C)CC5)c(O)c4c3C2=O)NC(=O)/C(C)=C\\C=C\\[C@H](C)[C@H](O)[C@@H](C)[C@@H](O)[C@@H](C)[C@H](OC(C)=O)[C@@H]1C")
"resistant"

* * *

System: S. aureus ATCC 33592 (MRSA) Parental Wild-Type
EXPERIMENT_DESCRIPTION: Kirby-Bauer zones of inhibition (ZOI) antibiotic susceptibility assay, untreated MRSA parent strain
Format: cell-based
MEASUREMENT_SETUP: S. aureus ATCC 33592 (MRSA), untreated parent; Kirby-Bauer ZOI
ASSAY_ENDPOINT: Zone diameter

>>> result("CC=CC1=C(C(=O)O)N2C(=O)[C@@H](NC(=O)[C@H](N)c3ccc(O)cc3)[C@H]2SC1")
"No Inhibition"
>>> result("Cc1onc(-c2ccccc2)c1C(=O)N[C@@H]1C(=O)N2[C@@H]1SC(C)(C)[C@@H]2C(=O)O")
"No Inhibition"
>>> result("CO[C@H]1/C=C/O[C@@]2(C)Oc3c(C)c(O)c4c(O)c(c(/C=N/N5CCN(C)CC5)c(O)c4c3C2=O)NC(=O)/C(C)=C\\C=C\\[C@H](C)[C@H](O)[C@@H](C)[C@@H](O)[C@@H](C)[C@H](OC(C)=O)[C@@H]1C")
"No Inhibition"
